# System: SN12C
# experimentSummary: NCI tumour cell line growth inhibition, 48 h
Calls of active or inactive are those of the source. Cut-off read from the data, not from the text of the source: active = GI50 up to about 1.1 µM and inactive = higher.
Classes used: true (1) for active, false (0) for inactive

>  <compound>
CC#CC(O)(C(=O)OC1CC(C)N(C)C(C)(C)C1)C1CCCC1 (stereo not drawn)

>  <classLabel>
false (0)

$$$$
>  <compound>
CCOC(=O)c1c(Sc2ccc([N+](=O)[O-])cc2[N+](=O)[O-])nc2c3ccccc3ccn12

>  <classLabel>
false (0)

$$$$
>  <compound>
CCOC(=O)c1c(C)nc2c(c1-c1cn(-c3ccccc3)nc1-c1ccccc1)C(=O)c1ccccc1-2

>  <classLabel>
false (0)

$$$$
>  <compound>
N#Cc1ccc(/N=C(/NCC(=O)O)Nc2ccc3ccccc3c2)cc1

>  <classLabel>
false (0)

$$$$
>  <compound>
Cc1cc(NCc2ccccc2)c2ccccc2[n+]1CCCCCCCCCC[n+]1c(C)cc(NCc2ccccc2)c2ccccc21.[O-][Cl+3]([O-])([O-])[O-].[O-][Cl+3]([O-])([O-])[O-]

>  <classLabel>
true (1)

$$$$
>  <compound>
N/C(CSCCSC/C(N)=N/O)=N\O

>  <classLabel>
false (0)

$$$$
>  <compound>
O=C(N/N=C(COc1ccccc1Cl)\N=C\c1ccncc1)c1ccncc1

>  <classLabel>
false (0)

$$$$
>  <compound>
O=c1cc(N2CCCC2)[nH]c(=O)n1Cc1ccccc1

>  <classLabel>
false (0)

$$$$
>  <compound>
O=C1NC(=S)NC(=O)C1=C/C=C/c1ccc([N+](=O)[O-])cc1

>  <classLabel>
false (0)

$$$$
>  <compound>
COc1cc(Br)cc2cc(C3=CSC4=NCCN34)c(=O)oc12

>  <classLabel>
false (0)

$$$$
>  <compound>
Cc1ccc(NC(=O)CC2C(=O)Nc3ccccc3S2(=O)=O)cc1C (stereo not drawn)

>  <classLabel>
false (0)

$$$$
>  <compound>
CS(=O)(=O)c1ccc(-c2cc(-c3ccc(S(C)(=O)=O)cc3)[n+](-c3cc(-c4ccccc4)c([O-])c(-c4ccccc4)c3)c(-c3ccc(S(C)(=O)=O)cc3)c2)cc1

>  <classLabel>
false (0)

$$$$
>  <compound>
CCCC(CC)c1c(O)c(O)c(C(CC)CCC)c(C(CC)CCC)c1C(CC)CCC (stereo not drawn)

>  <classLabel>
false (0)

$$$$
>  <compound>
COc1ccc(C2CC(c3sc(Nc4ccc(C)cc4)nc3C)=NN2)cc1 (stereo not drawn)

>  <classLabel>
false (0)

$$$$
>  <compound>
CC(C)=CC(=O)Cc1nc2ccc([N+](=O)[O-])cc2[nH]c1=O

>  <classLabel>
false (0)

$$$$
>  <compound>
C[C@H]1[C@H](C)CC[C@]2(C(=O)OC3OC(CO)C(O)C(O)C3O)CC[C@]3(C)C(=CC[C@@H]4[C@@]5(C)C[C@@H](O)[C@@H]6OC(=O)c7cc(O)c(O)c(O)c7-c7c(cc(O)c(O)c7O)C(=O)OC[C@@]6(CO)[C@@H]5CC[C@]43C)[C@H]12 (stereo partly drawn)

>  <classLabel>
false (0)

$$$$
>  <compound>
CSc1nc2c(N)ncnc2n1C

>  <classLabel>
false (0)

$$$$
>  <compound>
Cc1cc2nnn(C3CCCCO3)c2cc1C (stereo not drawn)

>  <classLabel>
false (0)

$$$$
